- subjectOfTest: Cytochrome P450 3A4 (Homo sapiens)
- assayProtocol: qHTS Assay for Activators of Cytochrome P450 3A4 (AID 885); note: nearly all actives have a fitted effect of over 65% in size
- conditionSummary: recombinant CYP3A4, Luciferin-PPXE luminescence, 60 min; series mostly up to 57.1 µM
Calls of active or inactive are those of the source. Calls come from the whole dose curve; as a rule, active = well fitted activation curve with a large enough effect; inconclusive = small, poorly fitted or top-dose-only effect; inactive = no such curve, though single readings can be large or run the other way.
Write down one outcome, taken from active, inactive

[in] Returns: the outcome recorded for `Cn1c(=O)c(CCc2ccccc2)nc2cnc(Nc3ccccc3)nc21` in this assay.
[out] inactive

[in] Returns: the outcome recorded for `COCCNc1nc(-c2ccccc2C)nc2ccccc12` in this assay.
[out] inactive

[in] Returns: the outcome recorded for `O=C(c1cnccn1)N1CCC[C@@]2(CCN(Cc3ccncc3)C2)C1` in this assay.
[out] inactive

[in] Returns: the outcome recorded for `O=c1c(-c2cccc(F)c2)nc2cncnc2n1C1CC1` in this assay.
[out] inactive

[in] Returns: the outcome recorded for `CNc1nc(-c2ccccc2C)nc2ccccc12` in this assay.
[out] inactive

###

- assayProtocol: NFAT Signaling Pathway (AID 444);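 note: carbachol stimulus at about its EC50 of 1 µM final; % is set by controls: 0 for no effect and ±100 for the full control effect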
- conditionSummary: Jurkat NFAT-bla M1, carbachol, beta-lactamase ratio, 5 h; at 7.69 µM (top of the series) unless noted
Results filed as inconclusive are left out. Active and inactive are the calls of the source. Calls follow the shape of the dose curve; as a rule, active = well fitted curve in either direction with a large enough effect (not every such curve was filed as active); inconclusive = small, poorly fitted or top-dose-only effect, or another doubt; inactive = flat fitted curve, though single readings scatter.
As shown below, each of these molecules has a reported activity change, negative = inhibition value.

Consider the worked cases shown below.
| entrySmiles | activity change, negative = inhibition |
| --- | --- |
| COc1ccc(-c2nc3cnc(N4CCN(C)CC4)nc3n(C)c2=O)cc1 | 27.7% (inactive) |
| COc1ccc(-n2c(=O)c(-c3cn(C)c4ccccc34)nc3cncnc32)cc1 | 6.02% (inactive) |
| COc1ncc2nc(-c3cccs3)c(=O)n(C)c2n1 | 8.87% (inactive) |

# ---- query molecule ----
[in] activity change, negative = inhibition lookup needed for `COc1ccc2[nH]cc(CCNc3cc(-c4ccc5c(c4)OCO5)ncn3)c2c1` , thanks.
[out] 19.3% (inactive)

###

- subjectOfTest: Dual specificity protein kinase CLK4 (Homo sapiens)
- assayProtocol: qHTS Assay for Inhibitors of CDC-like Kinase 4 (Kinase-Glo Assay) (AID 1770); note: nearly all actives have a fitted effect of over 65% in size; note: potency is the fitted concentration of half-maximal effect
- conditionSummary: recombinant Clk4, Kinase-Glo ATP depletion luminescence; series mostly up to 66.7 µM
Records with an inconclusive call do not appear. Active and inactive are the calls of the source. Calls come from the whole dose curve; as a rule, active = well fitted inhibition curve with a large enough effect; inconclusive = small, poorly fitted or top-dose-only effect; inactive = flat fitted curve, though single readings scatter.
measuredMetric: Potency

| entrySmiles | resultValue |
| --- | --- |
| COc1ccc(-n2c(=O)c(-c3cccc(F)c3)nc3cncnc32)cc1 | inactive |
| O=c1c(-c2ccccc2)nc2cnc(Oc3cccc(Cl)c3)nc2n1C[C@H]1CCCO1 | inactive |
| COc1cccc(-c2ccc3ncnc(NCCN4CCOCC4)c3c2)c1 | 1.78 µM (active) |
| Cn1c(=O)c(-c2ccc(F)cc2)nc2cnc(N3CCOCC3)nc21 | inactive |
| CCNc1ncc2nc(-c3cn(C)c4ccccc34)c(=O)n(C[C@H]3CCCO3)c2n1 | inactive |

[in] Potency lookup needed for `COc1cccc(Nc2ncc3nc(-c4ccc(Cl)cc4)c(=O)n(C[C@H]4CCCO4)c3n2)c1` , thanks.
[out] inactive

[in] Potency lookup needed for `COc1ccc2[nH]cc(CCNc3nc(-c4cccnc4)nc4ccccc34)c2c1` , thanks.
[out] 11.2 µM (active)

[in] Potency lookup needed for `CCNc1ncc2nc(-c3ccc(F)cc3)c(=O)n(CCc3ccccc3)c2n1` , thanks.
[out] inactive

[in] Potency lookup needed for `CN(C)c1ccc(-c2cncnc2-n2ccnc2)cc1` , thanks.
[out] 14.1 µM (active)

[in] Potency lookup needed for `O=c1c(-c2ccc(Cl)cc2)nc2cnc(Nc3ccccc3)nc2n1C[C@H]1CCCO1` , thanks.
[out] inactive
